Molecular target: T1, recombinant canine OX40L ECD-TNCc-HIS protein (canine)
T1 construct: also called Trimeric OX40L probe (HIS tag); trimeric canine OX40L
T1 chain: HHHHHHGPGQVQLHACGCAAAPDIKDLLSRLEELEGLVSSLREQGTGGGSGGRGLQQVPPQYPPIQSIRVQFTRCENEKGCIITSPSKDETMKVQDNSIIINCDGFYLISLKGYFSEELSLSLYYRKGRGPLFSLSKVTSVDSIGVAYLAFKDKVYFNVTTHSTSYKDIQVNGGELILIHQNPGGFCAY
Experiment: SPR KD1, bivalent analyte model
measured-quantity: pKd
The scale used: pKd is minus the common logarithm of the concentration in molar units.

For PMX052 (antibody, V domains shown, also called PMX52) VH: EVQLVESGGDLVKPAGSLRLSCVASGFTFSSYSMSWVRQAPEKGLQLVAGISGGGSRTYYSDAVKGRFTISRDNAKNTVYLQMNSLRAEDTAIYYCAKDGGSWAGYNFDYWGQGTLVTVSS VL: DIVMTQTPPSLSVSPRETASISCKASQSLLHSDGSTYLDWYLQKPGQSPQLLIYLGSNRFTGVSDRFSGSGSGTEFTLRISRVEANDTGVYYCGQGTQLPYTFGQGTELEIK , what is its reported pKd? 7.92

Bench note: what pKd did PMX059 (antibody, V domains shown, also called PMX59) VH: EVHLVESGGDLVKPEGSLRLSCVVSGFTFSNYVMNWVRQAPGKGLQWVAFISGDGRSTTYTDAVKSRFTISRDNAKNTLYLQMSSLRTEDTAIYFCAKEKYSSGWSFEYWGQGTLVTVSS VL: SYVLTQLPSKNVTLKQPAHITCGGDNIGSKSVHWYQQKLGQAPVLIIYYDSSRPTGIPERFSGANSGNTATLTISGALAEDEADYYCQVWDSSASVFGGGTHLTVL show? 8.00

Endpoint output: pKd of PMX051 (antibody, V domains shown, also called PMX51) VH: EVQLVESGGDLVKPGGSLRLSCVASGFSFNTYHMNWVRQAPGKGLHWVAFINSDGGGTSYADTVKGRFTISRDYAKNTLYLQMNSLRAEDTAVYYCVSGSIWTHFDYWGQGTLVTVSS VL: SYVLTQLPSVSMTLRQTAHITCGGDIIGSKSVYWYQQKLGQAPVLIIYRDTNRPTGIPERFSGASSGNTATLTISGALAEDEADYYCQVWDSSTQAVFGGGTHLTVL . Value? 8.10
